# TGI per record follows
tested on: SF-295 CNS; experiment: NCI tumour cell line growth inhibition, 48 h

# compound, experimentalSystem, qualifierSymbol, TGI, µM
measured = [
    ("Cc1cnc2n1S(=O)(=O)c1cc(C(=O)Nc3cccc4nsnc34)c(Cl)cc1S2", "SF-295 CNS", "=", 49.3),
    ("Oc1c(Cl)cc(Cl)c(Cl)c1CNCCNCc1c(O)c(Cl)cc(Cl)c1Cl", "SF-295 CNS", "=", 20.3),
    ("CC(C)[N+]([O-])(CCCNc1c2ccccc2nc2cccc([N+](=O)[O-])c12)C(C)C", "SF-295 CNS", "=", 0.904),
    ("OC12c3ccccc3C1CCCCC2N1CCCC1 (stereo unspecified)", "SF-295 CNS", ">", 100),
    ("Cc1cc(S(=O)(=O)NC2=NCc3nc4ccccc4n32)c(S)cc1Cl", "SF-295 CNS", "=", 37.6),
    ("O=c1nc2n3c4c(cccc4nc-2c(=O)[nH]1)CCC3", "SF-295 CNS", ">", 100),
]
